- measurement_description: soluble fraction after stress (log2 fold change); higher = more stays soluble; pooled small domains, quantitative proteomics;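 also: 20 min heating vs room temperature control held 20 min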
- settings: stress: 75 degC
Use -2 as the dividing line for soluble fraction (log2), with the line itself on the 1.0 side and lower values as 0.0.

Below, 3 sequences whose answers are already recorded.
Decide: is the reported value of soluble fraction (log2) for HMTKPLHELLSQREFQVFTQLAAGRSVGEIAQQLSLSSNTVSTYRARILEKTGTRNDVELALYAIRR equal to or greater than -2? 0.0

Decide: is the reported value of soluble fraction (log2) for HMVNFKLIGNKIAEARKKVNISQAQLAQRLFISSQAVGKWERGESMPDIITFNRLAEILGVDLNYFSE equal to or greater than -2? 0.0

Decide: is the reported value of soluble fraction (log2) for HMALPRYFFRTRENGAVLFKTPVNNHQNRLEMHQIAAINIRNETVKPLGDTVLTDEETELIADWMRERKTV equal to or greater than -2? 1.0

New cases:
Decide: is the reported value of soluble fraction (log2) for HMTQGRVTGDGVNVRSQPNTDSAILTRVSTGKVVELISLKDNWYNVVVNGTKGYIRADYVSPYDG equal to or greater than -2? 1.0

Decide: is the reported value of soluble fraction (log2) for HMAEWLLVQLTNGNWFYGEVIEKTDATIVLNTDILGKVSIQKLDIRRSISGPLTAAKRQEIEDSERAKD equal to or greater than -2? 1.0

Decide: is the reported value of soluble fraction (log2) for HMPADHYEVLGIARDADAAEVKRAYRRLARESHPDANHGDSGAEVRFKAVSAAYEVLSDPERRARYDRFGH equal to or greater than -2? 1.0

Decide: is the reported value of soluble fraction (log2) for HMKKNTEALDYYKKAGANFPEDEVISSEYLFRAAQLQEVLGKTDEAVAIYKDIKAKYPTTEIGLNVDKFIL equal to or greater than -2? 1.0

Decide: is the reported value of soluble fraction (log2) for HMKGKDLQDAVVTVVGGAENWNAIRAWAQASASDSEKREINAAFQSGKLMATMMAERLALAYQQSG equal to or greater than -2? 1.0
